Assign furin cleavage Z-score to each entry below.
Target: furin, P09958;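 note: purified furin at 1:10 enzyme:substrate in 50 mM HEPES pH 7.5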
Sequence (P09958 whole entry): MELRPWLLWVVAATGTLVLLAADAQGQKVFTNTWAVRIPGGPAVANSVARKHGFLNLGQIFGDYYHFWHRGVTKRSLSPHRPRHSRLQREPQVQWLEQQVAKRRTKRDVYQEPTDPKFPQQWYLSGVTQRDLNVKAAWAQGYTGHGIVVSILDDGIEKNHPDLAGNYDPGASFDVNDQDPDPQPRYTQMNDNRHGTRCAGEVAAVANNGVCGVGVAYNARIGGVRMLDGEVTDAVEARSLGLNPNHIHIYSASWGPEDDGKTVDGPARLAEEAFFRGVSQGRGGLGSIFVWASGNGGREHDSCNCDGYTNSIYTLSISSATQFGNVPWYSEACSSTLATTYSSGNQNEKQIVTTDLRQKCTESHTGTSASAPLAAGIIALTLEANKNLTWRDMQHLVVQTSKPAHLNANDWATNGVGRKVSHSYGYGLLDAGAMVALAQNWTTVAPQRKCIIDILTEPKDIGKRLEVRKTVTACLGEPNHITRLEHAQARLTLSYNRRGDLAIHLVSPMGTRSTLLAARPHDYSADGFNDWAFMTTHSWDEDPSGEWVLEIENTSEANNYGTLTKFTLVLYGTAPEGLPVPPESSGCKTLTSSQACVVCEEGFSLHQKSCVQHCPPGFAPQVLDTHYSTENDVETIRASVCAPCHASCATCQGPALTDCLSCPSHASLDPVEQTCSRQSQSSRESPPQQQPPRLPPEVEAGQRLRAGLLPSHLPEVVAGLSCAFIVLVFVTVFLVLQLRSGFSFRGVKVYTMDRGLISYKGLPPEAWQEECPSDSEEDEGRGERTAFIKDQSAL
Experiment: furin cleavage Z-score vs untreated control; higher = more cleavage, active = 3.5 or more, inactive = 1 or less, 8 variable residues between constant flanks
Settings: 7.5 min
The other results are listed elsewhere or left out. No count for the full screen is at hand.
Numbers only.

Use these answered entries as a reference point.
CAGAQRRRRAAGNASASA [FS-1524]
6.18
CATAFVGAGLAGNASASA [HC1074]
-0.799
CAAIPLEVIKAGNASASA [HC850]
-0.209

Please report furin cleavage Z-score for every entry that follows.
1. CANHLTPLRDAGNASASA [HC636]
2. CADIPRYKRMAGNASASA [FS-1189]

Key:
[-0.625, 6.09]

src = the supplement of paper PMC3545927
